# ASSAY TEXT: Selectivity index, ratio of IC50 for rat L6 cells assessed as reduction in cell viability measured after 72 hrs by Alamar blue based inverted microscopy analysis to IC50 for Plasmodium falciparum NF54 measured after 24 hrs in presence of [3H] hypoxanthine by liquid scintillation counter analysis
# Type: toxicity
# MEASUREMENT CONTEXT: read-out: Ratio IC50
Recorded selectivity ratio at 72 h for the following molecules

Some solved entries appear below for comparison.
{"columns": ["MOLECULE", "selectivity ratio at 72 h"],
 "data": [
  ["COc1ccc2c(c1OC)CO[C@@H]2[C@H]1c2c(cc3c(c2OC)OCO3)CCN1C(CN=C=S)c1cccnc1 (some centres not stated)", 2.9],
  ["COc1ccc2c(c1OC)CO[C@@H]2[C@H]1c2c(cc3c(c2OC)OCO3)CCN1C(CN=C=S)c1ccccc1 (some centres not stated)", 5.07],
  ["C[C@@H](CCCN=C=S)[C@H]1CC[C@H]2[C@@H]3CC[C@@H]4C[C@H](O)CC[C@]4(C)[C@H]3CC[C@]12C", 1.1],
  ["COC(=O)[C@H](Cc1c[nH]c2ccccc12)N=C=S", 7.7]
]}

# input I have this molecule here, S=C=NCCc1c[nH]c2ccccc12 , and I need its recorded selectivity ratio at 72 h.
# output 0.7

# input I have this molecule here, C[C@@H](CCCN=C=S)[C@H]1CC[C@H]2[C@@H]3[C@H](O)C[C@@H]4C[C@H](O)CC[C@]4(C)[C@H]3C[C@H](O)[C@]12C , and I need its recorded selectivity ratio at 72 h.
# output 0.7

# input I have this molecule here, C[C@@H](CCCN=C=S)[C@H]1CC[C@H]2[C@@H]3[C@H](O)C[C@@H]4C[C@H](O)CC[C@]4(C)[C@H]3CC[C@]12C , and I need its recorded selectivity ratio at 72 h.
# output 1.1

# input I have this molecule here, CC(C)c1ccc2c(c1)CC[C@H]1[C@](C)(CN=C=S)CCC[C@]21C , and I need its recorded selectivity ratio at 72 h.
# output 9.4

# input I have this molecule here, COc1ccc2c(c1OC)CO[C@@H]2[C@H]1c2c(cc3c(c2OC)OCO3)CCN1C(CN)c1ccc2c(c1)Cc1ccccc1-2 (some centres not stated) , and I need its recorded selectivity ratio at 72 h.
# output 11.2

# input I have this molecule here, COc1ccc2c(c1OC)CO[C@@H]2[C@H]1c2c(cc3c(c2OC)OCO3)CCN1C(CN)c1ccc(C)cc1 (some centres not stated) , and I need its recorded selectivity ratio at 72 h.
# output 12.8

# input I have this molecule here, COc1ccc2c(c1OC)CO[C@@H]2[C@H]1c2c(cc3c(c2OC)OCO3)CCN1C(CN=C=S)c1ccc(C)cc1 (some centres not stated) , and I need its recorded selectivity ratio at 72 h.
# output 1.4

# input I have this molecule here, COc1ccc2c(c1OC)CO[C@@H]2[C@H]1c2c(cc3c(c2OC)OCO3)CCN1[C@@H](CN)c1ccc(F)cc1 , and I need its recorded selectivity ratio at 72 h.
# output 14.5

---

Recorded IC50 for the following molecules
# Test system: Trypanosoma cruzi
# ASSAY TEXT: Antitrypanosomal activity against Trypanosoma cruzi Tulahuen C4 trypomastigotes infected in rat L6 cells assessed as parasite growth inhibition measured after 96 hrs by inverted microscopy analysis
# Assay type: functional, organism-based
# MEASUREMENT CONTEXT: Tulahuen C4, L6, 96 h
The answer is to be given in µM; state only the numeric part.

Some solved entries appear below for comparison.
{"columns": ["MOLECULE", "UOM", "OBSERVED"],
 "data": [
  ["COc1ccc2c(c1OC)CO[C@@H]2[C@H]1c2c(cc3c(c2OC)OCO3)CCN1[C@@H](CN)c1ccc(F)cc1", "µM", 10.6],
  ["COc1ccc2c(c1OC)CO[C@@H]2[C@H]1c2c(cc3c(c2OC)OCO3)CCN1C(CN=C=S)c1cccnc1 (stereo partly drawn)", "µM", 1.9]
]}

Shifting focus to the molecule that follows.
# input I have this molecule here, O=C(Cn1ccnc1[N+](=O)[O-])NCc1ccccc1 , and I need its recorded IC50.
# output 2.41

---

# System: L6
# ASSAY TEXT: Cytotoxicity against rat L6 cells assessed as reduction in cell viability measured after 72 hrs by Alamar blue based inverted microscopy analysis
# MEASUREMENT CONTEXT: L6, 72 h, read-out: IC50
pIC50: −log10 of the molar value.
Cut-off 5 on pIC50, inclusive. At or above means t; below means f.

Worked set:
{"columns": ["MOLECULE", "CATEGORY"],
 "data": [
  ["COC(=O)[C@H](Cc1c[nH]c2ccccc12)N=C=S", "f"],
  ["C[C@@H](CCCN=C=S)[C@H]1CC[C@H]2[C@@H]3[C@@H](O)C[C@@H]4C[C@H](O)CC[C@]4(C)[C@H]3CC[C@]12C", "t"],
  ["COc1ccc2c(c1OC)CO[C@@H]2[C@H]1c2c(cc3c(c2OC)OCO3)CCN1[C@@H](CN)c1ccc(F)cc1", "f"],
  ["COc1ccc2c(c1OC)CO[C@@H]2[C@H]1c2c(cc3c(c2OC)OCO3)CCN1C(CN)c1ccc(C)cc1 (stereo partly specified)", "f"],
  ["Nc1nc(N)nc(Nc2ccc([As]3SCC(CO)S3)cc2)n1 (stereo unspecified)", "f"]
]}

# input Check if pIC50 >= 5 (inclusive). Item: Cc1ccc(N=C=S)cc1
# output f

# input Check if pIC50 >= 5 (inclusive). Item: COc1ccc2c(c1OC)CO[C@@H]2[C@H]1c2c(cc3c(c2OC)OCO3)CCN1C(CN=C=S)c1ccc(C)cc1 (stereo partly specified)
# output t

# input Check if pIC50 >= 5 (inclusive). Item: COc1ccc2c(c1OC)CO[C@@H]2[C@H]1c2c(cc3c(c2OC)OCO3)CCN1C(CN)c1ccc2c(c1)Cc1ccccc1-2 (stereo partly specified)
# output f

# input Check if pIC50 >= 5 (inclusive). Item: C[C@@H](CCCN=C=S)[C@H]1CC[C@H]2[C@@H]3CC[C@@H]4C[C@H](O)CC[C@]4(C)[C@H]3CC[C@]12C
# output t

# input Check if pIC50 >= 5 (inclusive). Item: COc1ccc2c(c1OC)CO[C@@H]2[C@H]1c2c(cc3c(c2OC)OCO3)CCN1C(CN=C=S)c1ccc2c(c1)Cc1ccccc1-2 (stereo partly specified)
# output t

# input Check if pIC50 >= 5 (inclusive). Item: COc1ccc2c(c1OC)CO[C@@H]2[C@H]1c2c(cc3c(c2OC)OCO3)CCN1C(CN=C=S)c1cccnc1 (stereo partly specified)
# output t

---

Recorded selectivity ratio at 72 h for the following compounds
# ASSAY TEXT: Selectivity index, ratio of IC50 for rat L6 cells assessed as reduction in cell viability measured after 72 hrs by Alamar blue based inverted microscopy analysis to IC50 for Trypanosoma cruzi Tulahuen C4 trypomastigotes infected in rat L6 cells assessed as parasite growth inhibition measured after 96 hrs by inverted microscopy analysis
# Format: toxicity
# MEASUREMENT CONTEXT: read-out: Ratio IC50
Response field accepts a number only; no unit should be typed.

{"columns": ["COMPOUND", "selectivity ratio at 72 h"],
 "data": [
  ["COc1ccc2c(c1OC)CO[C@@H]2[C@H]1c2c(cc3c(c2OC)OCO3)CCN1[C@@H](CN)c1ccc(F)cc1", 3.7]
]}

# input I have this compound here, COc1ccc2c(c1OC)CO[C@@H]2[C@H]1c2c(cc3c(c2OC)OCO3)CCN1C(CN=C=S)c1cccnc1 (stereo partly drawn) , and I need its recorded selectivity ratio at 72 h.
# output 3.8

---

# ASSAY TEXT: Selectivity index, ratio of IC50 for rat L6 cells assessed as reduction in cell viability measured after 72 hrs by Alamar blue based inverted microscopy analysis to IC50 for bloodstream Trypanosoma brucei rhodesiense STIB900 assessed as parasite growth inhibition measured after 70 hrs by Alamar blue assay
# Type: toxicity
# MEASUREMENT CONTEXT: read-out: Ratio IC50
ASSAY ENDPOINT: selectivity ratio at 72 h
Response field accepts a number only; no unit should be typed.

Some solved entries appear below for comparison.
{"columns": ["COMPOUND", "ASSAY ENDPOINT", "OBSERVED"],
 "data": [
  ["COC(=O)[C@H](Cc1c[nH]c2ccccc12)N=C=S", "selectivity ratio at 72 h", 3.5],
  ["Nc1nc(N)nc(Nc2ccc([As]3SCC(CO)S3)cc2)n1 (stereo not drawn)", "selectivity ratio at 72 h", 3230],
  ["Cc1ccc(N=C=S)cc1", "selectivity ratio at 72 h", 8.8],
  ["COc1ccc2c(c1OC)CO[C@@H]2[C@H]1c2c(cc3c(c2OC)OCO3)CCN1C(CN)c1ccc2c(c1)Cc1ccccc1-2 (stereo partly drawn)", "selectivity ratio at 72 h", 5.6],
  ["COc1ccc2c(c1OC)CO[C@@H]2[C@H]1c2c(cc3c(c2OC)OCO3)CCN1[C@@H](CN)c1ccc(F)cc1", "selectivity ratio at 72 h", 29.3],
  ["S=C=NCCc1c[nH]c2ccccc12", "selectivity ratio at 72 h", 1.8],
  ["COc1ccc2c(c1OC)CO[C@@H]2[C@H]1c2c(cc3c(c2OC)OCO3)CCN1C(CN=C=S)c1ccccc1 (stereo partly drawn)", "selectivity ratio at 72 h", 8.2]
]}

# input I have this compound here, CC(C)c1ccc2c(c1)CC[C@H]1[C@](C)(CN=C=S)CCC[C@]21C , and I need its recorded selectivity ratio at 72 h.
# output 1.8
